Please go through the items and note down their normalized RNA/DNA level without ligand (log10).
B1: library; a variant is named by its letters at N, in order (parent)
chain: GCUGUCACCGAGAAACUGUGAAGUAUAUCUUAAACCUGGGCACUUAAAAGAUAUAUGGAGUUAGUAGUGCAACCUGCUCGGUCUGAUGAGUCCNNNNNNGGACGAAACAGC

variants of: B1; assay: normalized RNA/DNA level without ligand (relative to sTRSVctl = 100) (log10 (% of sTRSVctl)); HEK293T; ligand: cyclic di-GMP (c-di-GMP-II aptamer); higher = less ribozyme self-cleavage, higher mRNA level; conditions: reporter: mCherry (pCS4076), ligand present: no
One number for each entry.

Some variants with recorded normalized RNA/DNA level without ligand (log10):
AUAUUU	1.67
ACGGGC	1.7
UCUGCG	1.78

Hey, can you go through the list below and give me normalized RNA/DNA level without ligand (log10) for every item?
1. GUACGA
2. AGUUCC
3. GACACC
4. AUCAUA
5. CUAGCA
6. GAAGUA
7. UGGAAG

### Response
[1.43, 1.8, 1.71, 1.61, 1.71, 1.64, 1.68]

Give me normalized RNA/DNA level without ligand (log10) for each of these variants, listed below.
1. GUGUAA
2. GAGUGC
3. CCCUGA

### Response
1. 1.48
2. 1.78
3. 1.61
